B1: GLT8D2 (parent)
chain: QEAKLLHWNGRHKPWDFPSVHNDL

Variants of: B1
Assay: protein stability index of a GFP-peptide fusion (GPS, HEK-293T) (PSI 1-6); higher = more stable;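 note: lentivirally expressed fusions sorted by FACS into six bins by GFP to DsRed ratio, PSI derived from sequencing read proportions per bin multiplied by bin number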
Settings: c terminus: a fixed tail appended

residue.codes | protein stability index
QEAKLLHWNGRHDPWDFPSVHNDL [K13D] | 3.73
QEAKLLHWCGRHKPWDFPSVHNDL [N9C] | 2.41
QEAKLLHWNGRHKPWDFPSVTNDL [H21T] | 3
QEAKLLHWNGRHGPWDFPSVHNDL [K13G] | 2.62
QEANLLHWNGRHKPWDFPSVHNDL [K4N] | 2.68
QEAKLLHWNGRDKPWDFPSVHNDL [H12D] | 3.26
QEAKLLHWNGRHKPWDFPSAHNDL [V20A] | 2.97
QEAKLLHWNNRHKPWDFPSVHNDL [G10N] | 2.8
QEAKLLHWNGREKPWDFPSVHNDL [H12E] | 3.19
QEAKLLHWNGRHKPWDFPSVHNWL [D23W] | 2.48
QHAKLLHWNGRHKPWDFPSVHNDL [E2H] | 2.21
QEAKLLHWNGRHKPWDWPSVHNDL [F17W] | 2.58
QEAKLLHWNGRHKPWRFPSVHNDL [D16R] | 2.33
QEAKLLHWNGRHKPWDFPSVHNDC [L24C] | 3.01
QEAKLLHWNGRHKPWDFPSVNNDL [H21N] | 2.96
QEAKLLHWNGRQKPWDFPSVHNDL [H12Q] | 2.58
QEAKLLHWNGCHKPWDFPSVHNDL [R11C] | 2.55
QEAKLLHWNGRHKPWDFRSVHNDL [P18R] | 2.41
QEAKDLHWNGRHKPWDFPSVHNDL [L5D] | 3.3
QEAKLLHWNGRHNPWDFPSVHNDL [K13N] | 2.77
QEAKLLHWNGRHKPWDFPSVHNDH [L24H] | 2.65
QEAKLLHWNYRHKPWDFPSVHNDL [G10Y] | 2.9

Reference source: the supplement of paper PMC10567573
